Below, each entry is listed alongside its reported fold induction at 20 h, 10 µM.
Molecular target: LXRalpha (Oxysterols receptor LXR-alpha) (Homo sapiens)
Sequence (Q13133 whole entry): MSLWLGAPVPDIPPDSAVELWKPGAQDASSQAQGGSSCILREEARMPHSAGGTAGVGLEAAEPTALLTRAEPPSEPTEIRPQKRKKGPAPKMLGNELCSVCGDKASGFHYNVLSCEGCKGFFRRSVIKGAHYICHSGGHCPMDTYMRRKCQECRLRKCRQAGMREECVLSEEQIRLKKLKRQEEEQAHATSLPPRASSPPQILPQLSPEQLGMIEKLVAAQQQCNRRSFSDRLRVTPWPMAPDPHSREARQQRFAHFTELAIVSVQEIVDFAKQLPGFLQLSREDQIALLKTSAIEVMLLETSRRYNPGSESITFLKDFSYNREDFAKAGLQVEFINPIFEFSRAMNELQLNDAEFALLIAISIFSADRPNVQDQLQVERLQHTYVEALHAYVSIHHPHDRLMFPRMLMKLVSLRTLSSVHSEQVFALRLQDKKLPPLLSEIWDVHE
Assay: Agonist activity at human LXRalpha transfected in HEK293T cells at 10 uM incubated for 20 hrs by luciferase reporter gene assay relative to control
Type: cell-based
Details: HEK293T cells transfected with human LXRalpha, read-out: FC
ASSAY ENDPOINT: fold induction at 20 h, 10 µM

1. CC(C)C(=O)CC[C@@H](C)[C@H]1CC[C@H]2[C@@H]3C[C@H](O)[C@H]4C[C@H](O)CC[C@]4(C)[C@H]3CC[C@]12C : 4.27
2. O=C(O)Cc1cccc(OCCCN(Cc2cccc(C(F)(F)F)c2Cl)CC(c2ccccc2)c2ccccc2)c1 : 2.19
3. CC(C)C(=O)CC[C@@H](C)[C@H]1CC[C@H]2[C@@H]3CC=C4C[C@@H](O)CC[C@]4(C)[C@H]3CC[C@]12C : 2.36
4. CC(=O)O[C@H]1CC[C@@]2(C)C(=CC[C@H]3[C@@H]4CC[C@H]([C@H](C)CCC(=O)C(C)C)[C@@]4(C)CC[C@@H]32)C1 : 2.63

###

Test: Selectivity index, ratio of compound effect for agonist activity at human LXRalpha to compound effect for agonist activity at […]
ASSAY ENDPOINT: Ratio

1. CC(C)C(=O)CC[C@@H](C)[C@H]1CC[C@H]2[C@@H]3C[C@H](O)[C@H]4C[C@H](O)CC[C@]4(C)[C@H]3CC[C@]12C : 1
2. O=C(O)Cc1cccc(OCCCN(Cc2cccc(C(F)(F)F)c2Cl)CC(c2ccccc2)c2ccccc2)c1 : 1.11
3. CC(C)C(=O)CC[C@@H](C)[C@H]1CC[C@H]2[C@@H]3CC=C4C[C@@H](O)CC[C@]4(C)[C@H]3CC[C@]12C : 1.63
4. CC(=O)O[C@H]1CC[C@@]2(C)C(=CC[C@H]3[C@@H]4CC[C@H]([C@H](C)CCC(=O)C(C)C)[C@@]4(C)CC[C@@H]32)C1 : 1.14

###

Molecular target: Oxysterols receptor LXR-beta (Rattus norvegicus) (UniProt Q62755)
Sequence (Q62755 whole entry): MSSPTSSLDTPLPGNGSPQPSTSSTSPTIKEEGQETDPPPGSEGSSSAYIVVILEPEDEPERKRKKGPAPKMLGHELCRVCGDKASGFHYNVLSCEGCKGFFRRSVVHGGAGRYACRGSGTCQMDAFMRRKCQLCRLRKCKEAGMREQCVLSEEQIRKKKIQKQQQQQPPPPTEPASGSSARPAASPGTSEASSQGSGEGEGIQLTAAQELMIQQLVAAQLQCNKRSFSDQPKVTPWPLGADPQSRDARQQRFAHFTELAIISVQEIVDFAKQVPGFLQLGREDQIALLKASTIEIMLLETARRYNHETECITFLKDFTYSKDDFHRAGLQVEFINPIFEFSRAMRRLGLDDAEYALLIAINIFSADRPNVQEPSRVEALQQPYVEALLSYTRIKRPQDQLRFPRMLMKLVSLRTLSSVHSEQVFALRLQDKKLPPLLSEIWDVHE
Test: Agonist activity at rat LXRbeta transfected in HEK293T cells at 10 uM incubated for 20 hrs by luciferase reporter gene assay relative to control
Format: cell-based
ASSAY ENDPOINT: fold change (FC)

1. CC(C)C(=O)CC[C@@H](C)[C@H]1CC[C@H]2[C@@H]3CC=C4C[C@@H](O)CC[C@]4(C)[C@H]3CC[C@]12C : 3.85
2. O=C(O)Cc1cccc(OCCCN(Cc2cccc(C(F)(F)F)c2Cl)CC(c2ccccc2)c2ccccc2)c1 : 2.42
3. CC(C)C(=O)CC[C@@H](C)[C@H]1CC[C@H]2[C@@H]3C[C@H](O)[C@H]4C[C@H](O)CC[C@]4(C)[C@H]3CC[C@]12C : 4.27
4. CC(=O)O[C@H]1CC[C@@]2(C)C(=CC[C@H]3[C@@H]4CC[C@H]([C@H](C)CCC(=O)C(C)C)[C@@]4(C)CC[C@@H]32)C1 : 3

The reported measurements were obtained from ChEMBL document CHEMBL4359918.
